# pIC50 values compiled below
molecular target: Glutamate NMDA receptor; experiment: Inhibition of [3H]MK-801 binding to NMDA receptor in 50 mM TRIS acetate pH 7; type: protein-complex assay, Rattus norvegicus
pIC50: −log10 of the molar value.
Property measured: pIC50

1) COc1cc(C(=N)N)ccc1OC/C=C\COc1ccc(C(=N)N)cc1OC | 4.14
2) COc1cc(C2=NCCN2)ccc1OC/C=C/COc1ccc(C2=NCCN2)cc1OC | 4.08

* * *

target: Glutamate NMDA receptor (Rattus norvegicus) (UniProt P35439+Q00959+Q00960+Q00961+Q62645+Q8VHN2+Q9R1M7); assay: Hill coefficient for binding to NMDA receptor in TRIS acetate pH 7; assay type: protein-complex assay
Property measured: nH

1) N=C(N)c1ccc(OC/C=C/COc2ccc(C(=N)N)cc2)cc1 | 0.71
2) N=C(N)c1ccc(OC/C=C\COc2ccc(C(=N)N)cc2)cc1 | 1.13
3) C(=C/COc1ccc(C2=NCCN2)cc1)/COc1ccc(C2=NCCN2)cc1 | 0.99
4) N=C(N)c1ccc(OCCCCOc2ccc(C(=N)N)cc2)cc1 | 0.99
5) N=C(N)c1ccc(OCCCCCOc2ccc(C(=N)N)cc2)cc1 [PENTAMIDINE] | 0.93
